compounds and their reported GI50
Test system: UACC-62 melanoma
Experiment: NCI tumour cell line growth inhibition, 48 h

Form field GI50, entry Oc1cc(Cl)ccc1Oc1ccc(Cl)cc1Cl : 2160 nM

// COc1ccc2c(c1)nc(N)c1c3cccnc3cn21 : GI50 value = 54.1 nM

So, COc1ccc(/C=C2\CCCC3=C2NC(C)=NC3c2ccc(OC)c(OC)c2)cc1OC (stereo not given) ? Its GI50 was 12900 nM

Cc1cn2c(/C=N/N/C(N)=N\N)c(-c3ccc(Cl)c([N+](=O)[O-])c3)nc2s1 has a reported GI50 of 883 nM

For record CCCCC[C@H]1C/C=C2/C(=O)C(Cl)=C[C@@H]2C/C=C\CCCC(=O)O[C@@H](CCCCC)C/C=C2/C(=O)C(Cl)=C[C@@H]2C/C=C\CCCC(=O)O1 the listed GI50 is 297 nM
